This collection of values is drawn from ChEMBL document CHEMBL3808320.

# measured-target: Synaptic vesicular amine transporter (Rattus norvegicus, UniProt Q01827)
# Sequence (Q01827 whole entry): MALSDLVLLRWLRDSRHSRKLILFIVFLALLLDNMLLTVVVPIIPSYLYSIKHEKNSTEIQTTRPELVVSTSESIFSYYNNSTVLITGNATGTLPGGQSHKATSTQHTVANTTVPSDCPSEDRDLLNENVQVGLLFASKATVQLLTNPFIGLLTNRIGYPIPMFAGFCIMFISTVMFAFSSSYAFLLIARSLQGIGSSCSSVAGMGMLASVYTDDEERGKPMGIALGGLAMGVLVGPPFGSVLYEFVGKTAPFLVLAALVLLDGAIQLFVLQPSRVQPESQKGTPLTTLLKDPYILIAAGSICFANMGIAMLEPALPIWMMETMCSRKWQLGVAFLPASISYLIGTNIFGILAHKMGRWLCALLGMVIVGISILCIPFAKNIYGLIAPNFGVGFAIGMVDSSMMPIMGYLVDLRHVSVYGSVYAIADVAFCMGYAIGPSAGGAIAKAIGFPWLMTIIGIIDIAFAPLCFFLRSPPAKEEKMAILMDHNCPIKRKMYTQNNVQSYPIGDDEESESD
# assay-overview: Inhibition of [3H]DA uptake at VMAT2 in rat striata vesicles homogenate after 8 mins by liquid scintillation counting
pKi: −log10 of the molar value.
measured-attribute: pKi

{"smiles-text": "c1ccc(CCC2CCN(CCc3ccccc3)CC2)cc1", "val": 6.92}

* * *

# measured-target: Synaptic vesicular amine transporter (Rattus norvegicus, UniProt Q01827)
# assay-overview: Displacement of [3H]DTBZ from VMAT2 in rat whole brain vesicles homogenate after 30 mins by liquid scintillation counting
# Type: tissue-based
pKi: −log10 of the molar value.
Quick reference: pKi of the listed items.

{"smiles-text": "COc1cccc(CCN2CCC(Cc3ccccc3)CC2)c1", "pKi": 5.82}
{"smiles-text": "COc1ccccc1CCN1CCC(CCc2ccccc2)CC1", "pKi": 6.59}
{"smiles-text": "COc1ccccc1CCN1CCC(Cc2ccccc2)CC1", "pKi": 5.55}
